assay: FABP binding to cannabinoids by ANS displacement (CBD as ligand); conditions: 2 uM protein, 20 uM ANS, 33 uM CBD; decrease in fluorescence vs protein without ligand
resultType: binding to CBD by ANS displacement

| molecule | valueMeasured |
| --- | --- |
| Plant FABP WT: Wild type FABP from the plant Rhodamnia argentea, SEQ ID NO. 77 (protein, listed as Rhodamnia argentea) MTEFAGVYEFVKDDGKFEEILKAMDVNFLIRKVAGKMNPNTAIDVLDDGKMAFKTITPLKTVEIHFELGKEYENKRLDGTVVKGIVTRDGNKLIQEQMSEPKFKVIRELDGPEKLIVTWMCKDIVCVREYKRIQT | bind |
